tested-target: Histone deacetylase 2 (Homo sapiens)
Sequence (Q92769 whole entry): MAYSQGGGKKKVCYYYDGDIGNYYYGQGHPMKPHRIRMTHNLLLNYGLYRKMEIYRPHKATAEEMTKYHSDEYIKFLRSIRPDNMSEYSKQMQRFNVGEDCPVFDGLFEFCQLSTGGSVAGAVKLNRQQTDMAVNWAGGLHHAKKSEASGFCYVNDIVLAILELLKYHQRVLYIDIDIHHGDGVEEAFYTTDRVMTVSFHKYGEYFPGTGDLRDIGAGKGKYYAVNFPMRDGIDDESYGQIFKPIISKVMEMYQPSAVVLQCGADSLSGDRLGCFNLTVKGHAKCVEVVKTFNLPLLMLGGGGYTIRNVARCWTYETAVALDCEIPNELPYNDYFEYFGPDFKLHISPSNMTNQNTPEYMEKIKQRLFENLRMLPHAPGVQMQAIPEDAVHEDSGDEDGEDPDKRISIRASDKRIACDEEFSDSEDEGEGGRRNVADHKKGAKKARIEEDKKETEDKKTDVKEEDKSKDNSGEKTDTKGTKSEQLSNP
assay-comment: Inhibition of recombinant human HDAC2 after 60 mins by fluorescence assay
Decide using IC50 alone. Strictly below 300 nM: rule met. Equal to or above 300 nM: rule not met.

I'd appreciate it if you could check whether `C/C=C1\NC(=O)c2csc(n2)CNC(=O)C[C@@H](/C=C/CCSC(=O)CCCCCCC)OC(=O)[C@H](C(C)C)NC1=O` has IC50 smaller than 300 nM.
rule not met

I'd appreciate it if you could check whether `C/C=C1\NC(=O)c2csc(n2)[C@@H](C(C)C)NC(=O)C[C@@H](/C=C/CCSC(=O)CCCCCCC)OC(=O)[C@H](C(C)C)NC1=O` has IC50 smaller than 300 nM.
rule not met

I'd appreciate it if you could check whether `C/C=C1\NC(=O)c2csc(n2)CNC(=O)C[C@@H](/C=C/CCSC(C)=O)OC(=O)[C@H](C(C)C)NC1=O` has IC50 smaller than 300 nM.
rule not met

I'd appreciate it if you could check whether `C/C=C1\NC(=O)c2csc(n2)[C@@H](C(C)C)NC(=O)C[C@@H](/C=C/CCS)OC(=O)[C@H](C(C)C)NC1=O` has IC50 smaller than 300 nM.
rule met

I'd appreciate it if you could check whether C/C=C1\NC(=O)C(CS)NC(=O)[C@@H](C(C)C)NC(=O)C[C@@H](/C=C/CCS)OC(=O)[C@H](C(C)C)NC1=O (single isomer, unassigned) [FR-135313] has IC50 smaller than 300 nM.
rule met

I'd appreciate it if you could check whether `C/C=C1\NC(=O)c2csc(n2)CNC(=O)C[C@@H](/C=C/CCS)OC(=O)[C@H](C(C)C)NC1=O` has IC50 smaller than 300 nM.
rule met

I'd appreciate it if you could check whether CCCCCCCC(=O)SCC/C=C/[C@@H]1CC(=O)NCc2nc(cs2)C2=N[C@@](C)(CS2)C(=O)N[C@@H](C(C)C)C(=O)O1 [LARGAZOLE] has IC50 smaller than 300 nM.
rule not met
